Target: PDI A3 (Homo sapiens, UniProt P30101)
Sequence (P30101 25-505): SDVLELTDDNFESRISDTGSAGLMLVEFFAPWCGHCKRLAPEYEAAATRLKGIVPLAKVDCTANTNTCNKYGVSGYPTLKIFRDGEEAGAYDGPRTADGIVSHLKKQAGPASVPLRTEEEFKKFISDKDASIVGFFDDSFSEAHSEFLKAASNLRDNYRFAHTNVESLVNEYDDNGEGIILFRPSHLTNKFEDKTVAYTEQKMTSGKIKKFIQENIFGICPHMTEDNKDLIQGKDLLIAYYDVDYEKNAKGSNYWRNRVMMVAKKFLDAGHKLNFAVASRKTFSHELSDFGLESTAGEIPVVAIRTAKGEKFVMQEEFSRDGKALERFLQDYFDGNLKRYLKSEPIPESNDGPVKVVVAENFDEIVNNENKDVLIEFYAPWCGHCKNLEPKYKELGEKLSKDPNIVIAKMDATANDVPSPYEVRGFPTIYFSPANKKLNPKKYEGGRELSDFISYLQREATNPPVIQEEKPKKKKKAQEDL
Experiment: PDI A3 inhibition, insulin turbidimetric assay
Conditions: 10 ug/ml PDI A3, incubated 60 min at 37° C., turbidity at 650 nm; read-out: Inhibition of PDI A3 (EC 50)
// reported EC50 for each item listed
reported metric: EC50 (µM)

>>> recorded_number("COC(=O)[C@@H]1CN1S(=O)(=O)c1cccc2cc(N(C)C)ccc12 (stereo partly drawn)")
5.3
>>> recorded_number("CN(C)C(=O)C1CN1S(=O)(=O)c1cccc2cc(N(C)C)ccc12 (stereo not drawn)")
4.3
>>> recorded_number("COC(=O)C1CN1S(=O)(=O)c1ccc(F)cc1F (stereo not drawn)")
143
>>> recorded_number("COC(=O)C1CN1S(=O)(=O)c1cccnc1 (stereo not drawn)")
18.6
>>> recorded_number("CCCCCCc1ccc(S(=O)(=O)N2CC2C(=O)NC)cc1 (stereo not drawn)")
37
>>> recorded_number("COC(=O)C1CN1S(=O)(=O)c1ccc(C)cc1 (stereo not drawn)")
27
>>> recorded_number("CN(C)C(=O)C1CN1S(=O)(=O)c1ccc(F)cc1F (stereo not drawn)")
24

###

tested on: MDA-MB-231; test: MTT antiproliferative assay, 48 h, MDA-MB-231; format: cell-based, human; conditions: Homo sapiens, MDA-MB-231, 48-hour exposition, read-out: Cytotoxicity, IC50, μM MDA-MB-231
Reported IC50 values follow for various compounds
reported metric: IC50 (µM)

>>> recorded_number("COC(=O)C1CN1S(=O)(=O)c1ccccc1C (stereo not drawn)")
380
>>> recorded_number("COC(=O)C1CN1S(=O)(=O)c1ccc2cc(N(C)C)ccc2c1 (stereo not drawn)")
38
>>> recorded_number("CCCCCCc1ccc(S(=O)(=O)N2CC2C(=O)N2CCOCC2)cc1 (stereo not drawn)")
12

###

tested on: HT-1080; assay: MTT antiproliferative assay, 48 h, HT-1080; assay type: cell-based, human; details: 48-hour exposition, read-out: Cytotoxicity, IC50, μM HT-1080
reported metric: IC50 (µM)

>>> recorded_number("COC(=O)C1CN1S(=O)(=O)c1ccc2c(C=O)c(N(C)C)ccc2c1 (stereo not shown)")
7.9

###

Target: PDI A3 (Homo sapiens)
Sequence (P30101 25-505): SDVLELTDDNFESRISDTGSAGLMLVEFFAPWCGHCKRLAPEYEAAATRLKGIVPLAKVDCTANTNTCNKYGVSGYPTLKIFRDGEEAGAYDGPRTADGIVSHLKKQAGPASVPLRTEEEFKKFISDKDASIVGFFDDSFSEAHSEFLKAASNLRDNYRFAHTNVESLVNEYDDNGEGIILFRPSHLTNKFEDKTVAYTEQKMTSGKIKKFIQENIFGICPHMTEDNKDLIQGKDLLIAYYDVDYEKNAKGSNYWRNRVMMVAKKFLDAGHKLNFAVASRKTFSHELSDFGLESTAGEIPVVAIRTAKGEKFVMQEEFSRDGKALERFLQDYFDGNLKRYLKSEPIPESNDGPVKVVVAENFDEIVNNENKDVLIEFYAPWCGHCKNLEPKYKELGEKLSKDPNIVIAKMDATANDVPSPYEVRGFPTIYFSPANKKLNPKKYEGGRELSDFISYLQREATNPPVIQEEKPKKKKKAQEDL
Experiment: PDI A3 inhibition, insulin turbidimetric assay
Conditions: 10 ug/ml PDI A3, incubated 60 min at 37° C., turbidity at 650 nm; read-out: Inhibition of PDI A3 (EC 50)
pEC50: −log10 of the molar value.
reported metric: pEC50

>>> recorded_number("CN(C)C(=O)C1CN1S(=O)(=O)c1ccc(C2CCCCC2)cc1 (centres unmarked)")
4.93
>>> recorded_number("CN(C)c1ccc2c(S(=O)(=O)N3CC3C(N)=O)cccc2c1 (centres unmarked)")
3.89
>>> recorded_number("CNc1ccc2cc(S(=O)(=O)N3CC3C(=O)OC)ccc2c1Cl (centres unmarked)")
4.57
>>> recorded_number("CCCCc1ccc(S(=O)(=O)N2CC2C(C)=O)cc1 (centres unmarked)")
4.37
>>> recorded_number("CC(=O)C1CN1S(=O)(=O)c1ccc(C)cc1 (centres unmarked)")
4.01

###

biological target: PDI A3 (Homo sapiens, UniProt P30101); construct: purchased Mybiosource; host or cells: E. coli; experiment: PDI A3 inhibition, insulin turbidimetric assay; type: biochemical; conditions: 10 ug/ml PDI A3, incubated 60 min at 37° C., turbidity at 650 nm; read-out: Inhibition of PDI A3 (EC 50)
pEC50: −log10 of the molar value.
pEC50 listing for selected compounds.
reported metric: pEC50

>>> recorded_number("COC(=O)C1CN1S(=O)(=O)c1cccc2ccccc12 (stereo not drawn) [Compound C-3311]")
4.05
>>> recorded_number("CCOC(=O)C1CN1S(=O)(=O)c1ccc(C)cc1 (stereo not drawn) [Compound C-3537]")
4.52
>>> recorded_number("COC(=O)[C@@H]1CN1S(=O)(=O)c1ccc(C)cc1 (stereo partly drawn) [Compound C-3535]")
5.17
>>> recorded_number("COC(=O)C1CN1S(=O)(=O)c1ccc([N+](=O)[O-])cc1 (stereo not drawn) [Compound C-3212]")
4.49
>>> recorded_number("CN(C)C(=O)C1CN1S(=O)(=O)c1ccc2cc(N(C)C)ccc2c1 (stereo not drawn) [Compound C-3398]")
4.98
>>> recorded_number("CC(C)(C)c1ccc(S(=O)(=O)N2CC2C(N)=O)cc1 (stereo not drawn) [Compound C-3591]")
4.54
>>> recorded_number("Cc1ccc(S(=O)(=O)N2CC2C(N)=O)cc1 (stereo not drawn) [Compound C-3220]")
4.66
>>> recorded_number("COC(=O)C1CN1S(=O)(=O)c1ccc2[nH]c(=O)ccc2c1 (stereo not drawn) [Compound C-3350]")
4.32
>>> recorded_number("COC(=O)C1CN1S(=O)(=O)c1ccc2c(C=O)c(N(C)C)ccc2c1 (stereo not drawn) [Compound C-3390]")
5.40
>>> recorded_number("COC(=O)[C@H]1CN1S(=O)(=O)c1cccc2cc(N(C)C)ccc12 (stereo partly drawn) [Compound C-3570]")
4.16
>>> recorded_number("NC(=O)C1CN1S(=O)(=O)c1ccccc1 (stereo not drawn) [Compound C-3532]")
5.03
>>> recorded_number("NC(=O)C1CN1S(=O)(=O)c1cccnc1 (stereo not drawn) [Compound C-3562]")
4.25
>>> recorded_number("CCCCCCc1ccc(S(=O)(=O)N2CC2C(=O)N2CCCC2)cc1 (stereo not drawn) [Compound C-3511]")
3.99
>>> recorded_number("CN(C)C(=O)C1CN1S(=O)(=O)c1ccc(N(C)C)c2ccccc12 (stereo not drawn) [Compound C-3385]")
4.95
>>> recorded_number("Cc1ccc(S(=O)(=O)N2CC2C#N)cc1 (stereo not drawn) [Compound C-3314]")
4.62
>>> recorded_number("COC(=O)C1CN1S(=O)(=O)c1ccc2oc(=O)ccc2c1 (stereo not drawn) [Compound C-3355]")
4.21

###

Here the recorded melting point is given for each entry.
reported metric: melting point

>>> result("NC(=O)C1CN1S(=O)(=O)c1cccnc1 (stereo not shown)")
"147 to 149 °C"
>>> result("COC(=O)C1CN1S(=O)(=O)c1ccc([N+](=O)[O-])cc1 (stereo not shown)")
"106 to 108 °C"
>>> result("COC(=O)C1CN1S(=O)(=O)c1ccc2oc(=O)ccc2c1 (stereo not shown)")
"42 to 44 °C"
>>> result("CNc1ccc2cc(S(=O)(=O)N3CC3C(=O)OC)ccc2c1Cl (stereo not shown)")
"170 to 172 °C"
>>> result("COC(=O)C1CN1S(=O)(=O)c1ccc2[nH]c(=O)ccc2c1 (stereo not shown)")
"139 to 141 °C"
>>> result("CN(C)c1ccc2c(S(=O)(=O)N3CC3C(N)=O)cccc2c1 (stereo not shown)")
"197 to 199 °C"
>>> result("NC(=O)C1CN1S(=O)(=O)c1ccc(N)cc1 (stereo not shown)")
"139 to 141 °C"
